I'd be grateful if you could share measured neutralization IC50 for these entries.
Target Desc: HIV-1 Env of DU156.12 (HIV-1)
Assay Explanation: cell-based or functional assay

Record CAP256-VRC26.11 (antibody, V domains shown) VH: EVQLVESGGGVVPPGKSLTLSCVASRFTFSAFGMHWVRQAPGKGLEWVASISFAGIKKYYADSVKGRFSISRDNSNTLFLQMNGLRGEDTGLYHCVKDMRELECEEWASDYYDFGKPQPCLDRRGVSGISAWWGPGTMVTVSS VL: QSVLTQPPSVSAAPGQNVTISCSGPPSHIEKNDVSWYQRLPGMAPKMVIYESKRRPLGIPVRFSASRSGSSATLVITGLQTADEADYYCGTWDGRMNFGTGTTVSVLG , field neutralization IC50: > 50 µg/mL

Record summary for CAP256-VRC26.01 (antibody, V domains shown) VH: EVQVVESGGGVVQPGRSLRLSCTASGFTFSNFAMGWVRQAPGKGLEWVAFISSDGSNKNYGDSVKGRFTISRDNSKNTVFLQMNSLRVEDTALYYCAKDVGDYKSDEWGTEYYDISISYPIQDPRAMVGAFDLWGQGTMVTVSP VL: QSVLTQPPSVSAAPGQKVTISCSGSSSTIGNNYVSWYRLLPGTAPKLLIYKNDNRPSGIPDRFSGSKSGTSATLGISGLQTGDEADYYCGTWDTSLSGGGVFGTGTKVTVLG : reported neutralization IC50 = > 50 µg/mL

Form: binder = CAP256-VRC26.08 (antibody, V domains shown) VH: EVQLVESGGGVVQPGRSLTLSCAASQFTFSNYGMHWVRQAPGKGLEWVASVSNDGTKKYHGDSVWGRFTISRDNSKNTLFLQMSSLRAEDTAVYFCVRDQREDECEEWWSDYYDFGRELPCRKFRGLGLAGIFDIWGHGTMVTVSS VL: QSALTQPPSVSAAPGQKVTISCSGNSSNIGNNFVSWYQQVPGTAPKLLLYETYRRPSGIPDRFSGSKSGTSATLAITGLQTGDEADYYCTVWGVRKGVGAVFGTGTKVTVLG ; neutralization IC50 = 0.059 µg/mL

The reported neutralization IC50 of the binder CAP256-VRC26.12 (antibody, V domains shown) VH: EVQLVQSGGGVVQPGRSLRLSCAAPYFEFGRYGFHWVRQAPGKGLEWVASISFAGRDYYHSPSVWGRFTISRDNSKNTLYLQMNSLRIEDTALYFCARDLRESECEEWESDYYDFGKKGPCVKPRGVAGGLDLWGQGTMVIVSS VL: QSVLTQPPSVSTAPGQTVTVSCSGGTSNTGNNFVSWYQHLPGTAPKLLIYENNKRPLGVPDRFSGAKSGTSATLAITGLQTGDEGDYYCATWSGSLNIGTGTKVSVLG was > 50 µg/mL

Item: CAP256-VRC26.07 (antibody, V domains shown) VH: EVQLVESGGGVVQPGRSLRLSCVGSQFSFNRYGMHWVRQAPGKGLEWVAGISFDGTDRYHADNVWGRFTISRDNSKNTLYLQMSSLRAEDTALYYCAKDLREDECEEWWSDYYDFGKKLPCRKSRGVAGVFDKWGQGTMVTVSS VL: QAVLTQPPSVSAAPGQNVTISCSGSGSNIGNNFVSWYQQRPGTAPKLLIYESNKRPSGIPDRFSGSKSGTSATLAITGLQTGDEAYYYCATWAARLNSARVFGTGTMVTVLG | neutralization IC50: > 50 µg/mL
